The reported numbers originate from patent US20160143998A1.

Molecular target: T1, human GLP-1 receptor (human, UniProt P43220 24-463)
T1 construct: whole, on cells
Assay: SPA competition vs 125I-GLP-1(7-36)NH2, hGLP-1R BHK membranes, low HSA
pIC50: −log10 of the molar value. *1 amine or outer side, *2 acyl side, *3 side chain or, on linkers, in order; H or OH if unused. Where no end group is shown, it is not given here. Side-chain parts run from the residue outwards. [ ]: non-standard residue; d: D form. The star is where a group is joined. code 2xAEEA = O=C(COCCOCCN[*:1])NCCOCCOCC(=O)[*:2]; C20 diacid = O=C(O)CCCCCCCCCCCCCCCCCCC(=O)*; γGlu = O=C(O)[C@H](CCC(=O)[*:2])N[*:1]; Trx = NC[C@H]1CC[C@H](C(=O)O)CC1; code LysOEG = not defined here; Lys(Bis) = not defined here; AEEA = NCCOCCOCC(=O)O; Aib = CC(C)(N)C(=O)O

| BINDER | pIC50 |
| --- | --- |
| H[Aib]EGTFTSDVSSYLEEQAAREFIAWLVRGRGSSAEGK([Lys(Bis)-code 2xAEEA-AEEA-γGlu-Trx-C20 diacid]) (reading uncertain, Side chain read from the name: eps-Lys(Bis) branched linker, each leg C20 diacid-Trx-gGlu-2xOEG) | 8.49 |
| H[Aib]EGTFTSDVSSYLEEQAAREFIAWLVRGRGSK([Lys(Bis)-code 2xAEEA-AEEA-γGlu-Trx-C20 diacid]) (reading uncertain; also: printed as [Aib8,Glu22,Arg26,Arg34]-GLP-1-(7-37)-peptidyl-Ser-N{Epsilon}[(2S)-2,6-bis[[2-[2-[2[[2-[2-[2-[[(4S)-4-carboxy-4-[[4-[(19-carboxynonadecanoylamino)methyl]cyclohexanecarbonyl]amino]butanoyl]amino]ethoxy]ethoxy]acetyl]amino]ethoxy]ethoxy]acetyl]amino]hexanoyl]Lys, Side chain read from the name: eps-Lys(Bis) branched linker, each leg C20 diacid-Trx-gGlu-2xOEG) | 9.21 |
| H[Aib]EGTFTSDVSSYLEEQAAREFIAWLVRGRGGGGSK([code LysOEG-AEEA-γGlu-Trx-C20 diacid)(OEG-AEEA-γGlu-Trx-C20 diacid]) (reading uncertain, Side chain read from the name: eps-Lys(Bis) branched linker, each leg C20 diacid-Trx-gGlu-2xOEG) | 8.79 |
